- Target Entity: T1, PCSK9 protein (UniProt Q8NBP7 31-692, limits assumed)
- T1 construct: Kit reagent; also called proprotein convertase subtilisin/kexin type 9
- Assay Name: PCSK9-LDLR in vitro binding assay kit, OD450/540; peptide 50 µM, PCSK9 75 ng/mL; inhibition of PCSK9 binding to LDLR
Bridge positions count the residues as written; N and C are the ends. Ends that are not written are not given here.
Below, each entry is listed alongside its reported Inhibitory rate (%).
The response must be a number in % with no trailing unit.

Please review the following examples before continuing.
{"Binder": "TVFTSGCGRATKSIPPICFSWEEYLDWV (disulfide 7-18 (inferred), Hybrid with the anti-trypsin scaffold BT9; A disulfide bond joins the two Cys of the scaffold) [PCSK9_8]", "Test Value": 75.7}
{"Binder": "CGRATKSIPPICFGTVFTSWEEALDWV (disulfide 1-12 (inferred), Hybrid with the anti-trypsin scaffold BT9; A disulfide bond joins the two Cys of the scaffold) [PCSK9_3]", "Test Value": 89.9}

# context switch: different binder, same Inhibitory rate (%)
Request: Name the reported Inhibitory rate (%) value associated with the binder WEEALDWVCGRATKSIPPICFGYVANDLKI (disulfide 9-20 (inferred)) [PCSK9_12]
Result: 44.7
